Origin of values: patent US12497460B2

system-under-test: T1, MSR1 on differentiated THP-1 cells (Homo sapiens, UniProt P21757)
T1 construct: endogenous in cells; host or cells: THP-1 cells differentiated with PMA
T1 sequence (P21757 1-451): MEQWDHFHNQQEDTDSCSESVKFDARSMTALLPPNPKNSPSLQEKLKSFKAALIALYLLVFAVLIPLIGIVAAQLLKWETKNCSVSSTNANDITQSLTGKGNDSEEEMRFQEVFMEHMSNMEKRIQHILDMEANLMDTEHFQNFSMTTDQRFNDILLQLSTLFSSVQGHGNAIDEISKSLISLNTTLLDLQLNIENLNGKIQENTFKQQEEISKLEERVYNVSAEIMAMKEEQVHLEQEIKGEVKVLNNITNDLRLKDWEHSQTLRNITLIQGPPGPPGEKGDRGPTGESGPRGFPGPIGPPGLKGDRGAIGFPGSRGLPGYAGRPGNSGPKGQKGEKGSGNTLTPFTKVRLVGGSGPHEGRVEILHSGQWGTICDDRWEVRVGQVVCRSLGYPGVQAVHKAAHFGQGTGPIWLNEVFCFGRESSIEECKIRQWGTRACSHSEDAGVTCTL
protocol-summary: Binding and internalization of cell-surface expressed MSR1 in differentiated THP-1 cells
Type: cell-based
stated-conditions: 10 μg/mL antibody, 4° C.
Property: Total Binding at 4° C.; scope: individual molecules
Answer field: number only, no words.

For this molecule ( H1H27734P-N297Q: one of "Twelve anti-MSR1 antibodies"; "made with an N297Q single point mutation in human Fcγ portion" (antibody, V domains shown) VH: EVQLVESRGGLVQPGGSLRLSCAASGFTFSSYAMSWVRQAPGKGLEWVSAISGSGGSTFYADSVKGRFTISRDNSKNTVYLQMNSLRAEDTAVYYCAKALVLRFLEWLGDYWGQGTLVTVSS VL: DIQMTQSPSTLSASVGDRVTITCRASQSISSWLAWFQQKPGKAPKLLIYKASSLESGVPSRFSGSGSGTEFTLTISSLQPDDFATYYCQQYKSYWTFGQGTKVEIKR ), measured Total Binding at 4° C. is 482859

// field: Total Binding at 4° C.; key: H1H27729P-N297Q: anti-MSR1 antibody "made with an N297Q single point mutation in human Fcγ portion" (antibody, V domains shown) VH: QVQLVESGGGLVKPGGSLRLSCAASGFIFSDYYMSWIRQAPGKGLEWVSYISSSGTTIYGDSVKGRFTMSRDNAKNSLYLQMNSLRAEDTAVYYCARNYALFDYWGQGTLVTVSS VL: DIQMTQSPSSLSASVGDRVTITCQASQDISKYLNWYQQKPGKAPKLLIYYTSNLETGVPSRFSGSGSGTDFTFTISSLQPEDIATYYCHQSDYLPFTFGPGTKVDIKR ; value = 1930685

Per the record, H1H21227N-N297Q: "modified versions of 21227N (H1H21227N-N297Q and H1H21227N-N297D)"; anti-MSR1 antibody "with a N297Q single point mutation" (antibody, V domains shown) VH: QVQLVQSGAEVKKPGASVKVSCKVSGYTLTELSIHWVRQVPGKGLEWMGGFDPEEGETIFAQEFRDRVTLTEDTSPDTAYMELSSLKSEDAAVYYCTTPRYCNNGICYDYWGQGTLVTVSS VL: DIQMTQSPSSLSASVGDRVTITCRASQSISNYLNWYQQKPGKAPKLLIYTASSLQSGVPSRFSGSGSGTDFTLTISSLQTEDFATYYCQQSYSNFPITFGQGTRLEIKR has Total Binding at 4° C. of 1800012

More entries:
Reported Total Binding at 4° C. for H1H27739P-N297Q: anti-MSR1 antibody "made with an N297Q single point mutation in human Fcγ portion" (antibody, V domains shown) VH: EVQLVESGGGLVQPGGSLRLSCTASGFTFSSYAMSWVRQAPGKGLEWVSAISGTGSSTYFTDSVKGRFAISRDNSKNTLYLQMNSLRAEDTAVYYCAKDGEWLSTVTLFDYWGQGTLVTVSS VL: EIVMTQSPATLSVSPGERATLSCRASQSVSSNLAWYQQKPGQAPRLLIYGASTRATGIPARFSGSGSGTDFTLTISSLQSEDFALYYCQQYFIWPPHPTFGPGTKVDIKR was 3702857
